# assay-system: T1, human CD3 on CD3+ Jurkat cells (human, UniProt P07766 23-207)
# T1 construct: whole, on cells; Native CD3 complex on cells; the other CD3 chains are not specified for this assay; also called Human CD3+ Jurkat
# T1 sequence (P07766 23-207): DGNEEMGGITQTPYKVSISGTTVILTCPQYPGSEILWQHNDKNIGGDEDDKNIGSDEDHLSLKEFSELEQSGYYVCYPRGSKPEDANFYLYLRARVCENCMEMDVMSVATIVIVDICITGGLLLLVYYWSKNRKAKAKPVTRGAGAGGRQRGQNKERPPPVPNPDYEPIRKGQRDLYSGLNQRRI
# measurement-description: flow cytometry, 100 nM IgG on CD3+ Jurkat cells, pH 7.4
observable: MFI pH 7.4 (MFI)

[
  {
    "binder": "SAD10318_P01_A02 (ADI-48581) (antibody, V domains shown, IgG; also called Ab237) VH: QVQLVQSGAEVKKPGASVKVSCKASGFNIKDYYMHWVRQAPGQRLEWMGWIDLENANTIYDAKFQGRVTITRDTSASTAYMELSSLRSEDTAVYYCARDAYHHYFYDVWGQGTLVTVSS VL: DIVMTQSPDSLAVSLGERATINCKSSQSLLNARTHKNHLAWYQQKPGQPPKLLIYWASTRESGVPDRFSGSGSGTDFTLTISSLQAEDVAVYYCKQSYHHRTFGGGTKVEIK",
    "unit-info": "MFI",
    "experimental-value": 38
  },
  {
    "binder": "SAD10318_P02_C04 (ADI-48592) (antibody, V domains shown, IgG; also called Ab125) VH: QVQLVQSGAEVKEPGASVKVSCKASGFNIKDYYMHWVRQAPGQRLEWMGWIDLENANTIYDAKFQGRVTITRDTSASTAYMELSSLRSEDTAVYYCARDAHHRYFYDVWGQGTLVTVSS VL: DIVMTQSPDSLAVSLGERATINCKSSQSLLNAHTGHNYLAWYQQKPGQPPKLLIYWASTRESGVPDRFSGSGSGTDFTLTISSLQAEDVAVYYCKQSYSRRTFGGGTKVEIK",
    "unit-info": "MFI",
    "experimental-value": 2990
  },
  {
    "binder": "SAD10319_P01_D01 (ADI-48622) (antibody, V domains shown, IgG; also called Ab231) VH: QVQLVQSGAEVKKPGASVKVSCKASGYTFKSYDMHWVRQAPGQRLEWMGWIDAGTGNTKYSQKFQGRVTITRDTSASTAYMELSSLRSEDTAVYYCARDAYGRYFYDVWGQGTLVTVSS VL: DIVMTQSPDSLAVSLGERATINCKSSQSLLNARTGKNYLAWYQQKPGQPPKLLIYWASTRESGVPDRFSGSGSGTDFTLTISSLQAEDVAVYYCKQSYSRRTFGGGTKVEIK",
    "unit-info": "MFI",
    "experimental-value": 567
  }
]
